This collection of values is drawn from paper PMC6148290.

Biological target: bovine COX-1 (Bos taurus)
Sequence (O62664 25-600): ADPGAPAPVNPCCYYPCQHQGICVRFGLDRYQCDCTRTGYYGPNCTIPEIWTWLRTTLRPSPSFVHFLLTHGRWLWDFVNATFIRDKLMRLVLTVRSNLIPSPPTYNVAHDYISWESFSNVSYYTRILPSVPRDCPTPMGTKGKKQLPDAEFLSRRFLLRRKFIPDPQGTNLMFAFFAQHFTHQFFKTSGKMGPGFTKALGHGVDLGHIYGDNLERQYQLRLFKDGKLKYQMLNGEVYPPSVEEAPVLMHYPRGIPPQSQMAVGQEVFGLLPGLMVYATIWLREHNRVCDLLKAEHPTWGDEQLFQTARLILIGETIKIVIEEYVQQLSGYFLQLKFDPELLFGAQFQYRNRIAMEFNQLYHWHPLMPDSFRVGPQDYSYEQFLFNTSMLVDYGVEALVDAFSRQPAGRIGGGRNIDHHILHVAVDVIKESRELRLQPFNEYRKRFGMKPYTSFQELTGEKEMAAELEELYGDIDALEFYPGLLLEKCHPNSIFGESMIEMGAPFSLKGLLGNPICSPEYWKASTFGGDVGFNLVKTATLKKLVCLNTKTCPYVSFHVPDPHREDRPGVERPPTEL
Assay: Activity of isolated COX-1
Metric Name: IC50

IC50 value, target or system bovine COX-1 (Bos taurus), for Cc1c(C)c2c(c(C)c1O)CC[C@@](C)(CCCC(C)CCCC(C)CCCC(C)C(=O)O)O2 (stereo partly shown) : > 10 µM

----------
Target: 5-LO (Homo sapiens, UniProt P09917)
Sequence (P09917 1-674): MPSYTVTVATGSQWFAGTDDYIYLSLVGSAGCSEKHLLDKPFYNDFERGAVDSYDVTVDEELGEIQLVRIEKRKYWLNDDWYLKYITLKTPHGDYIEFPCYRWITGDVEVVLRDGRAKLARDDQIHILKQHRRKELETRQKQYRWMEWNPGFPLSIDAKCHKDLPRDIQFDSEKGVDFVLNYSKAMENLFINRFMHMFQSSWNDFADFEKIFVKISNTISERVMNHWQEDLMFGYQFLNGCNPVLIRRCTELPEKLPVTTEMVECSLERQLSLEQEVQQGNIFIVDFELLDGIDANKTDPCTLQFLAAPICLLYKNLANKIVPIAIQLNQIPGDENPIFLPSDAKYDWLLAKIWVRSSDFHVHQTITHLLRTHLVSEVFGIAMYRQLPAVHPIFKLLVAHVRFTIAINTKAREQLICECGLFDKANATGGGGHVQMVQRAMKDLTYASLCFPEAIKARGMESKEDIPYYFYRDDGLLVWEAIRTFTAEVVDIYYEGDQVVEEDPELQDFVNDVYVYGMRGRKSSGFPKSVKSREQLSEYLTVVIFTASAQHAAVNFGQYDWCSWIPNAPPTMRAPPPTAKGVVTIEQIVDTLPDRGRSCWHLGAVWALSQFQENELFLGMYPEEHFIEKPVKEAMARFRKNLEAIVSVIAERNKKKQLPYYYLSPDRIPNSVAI
Test: Activity of purified human recombinant 5-LO (cell-free)
Assay type: biochemical
Parameters: made in house; host or cells: E. coli Bl21 (DE3)
Settings: cell-free; mean ± s.e.m., n = 3; read-out: IC50, human recombinant 5-LO
Description: E. coli Bl21 (DE3) cells were transformed with pT3–5LO plasmid to express human recombinant 5-LO, which was purified by affinity chromatography on an ATP-agarose column. In brief, E. coli was lysed in 50 mM triethanolamine/HCl pH 8.0 plus EDTA (5 mM), soybean trypsin inhibitor (60 µg/ml), phenylmethanesulphonyl fluoride (1 mM), dithiothreitol (1 mM), and lysozyme (1 mg/ml). […]
Threshold 200 nM. IC50 below it: 1. IC50 at it or above: 0.

Solved cases (5 shown):
Cc1c(C)c2c(c(C)c1O)CC[C@@](C)(CCCC(C)CCCC(C)CCCC(C)CO)O2 (some centres unmarked)    0
Cc1cc(O)cc2c1O[C@](C)(CCC[C@H](C)CCC[C@H](C)CCCC(C)C)CC2    0
Cc1cc(O)cc2c1O[C@](C)(CCC[C@H](C)CCC[C@H](C)CCCC(C)CO)CC2 (some centres unmarked)    1
CC(C)=CCC/C(C)=C/CC/C(C)=C/CC[C@]1(C)CCc2cc(O)cc(C)c2O1    1
C/C(=C\CC/C(C)=C/CC/C(C)=C/CC[C@]1(C)CCc2c(C)c(O)cc(C)c2O1)CO    1

Kindly review the next molecule as well.
Quick check: does Cc1cc(O)c(C)c2c1O[C@](C)(CCC[C@H](C)CCC[C@H](C)CCCC(C)C)CC2 have IC50 under 200 nM? 0
